Record form. Attribute: kon. Fill in for each entry.
system: T1, mouse programmed cell death protein 1 Fc fusion protein (mPD-1-Fc), mPD-1 C60S (aa 25-167) (Mus musculus, UniProt Q02242, stabilised)
T1 construct: not cleaved; source: Expi293F, purified (Protein A, SEC; dimeric fraction); not shown: Fc (human), C-terminal, kept
experimental protocol: SPR; Carterra LSA; Fab from the ammonium sulfate precipitate of the culture supernatant immobilised on a NiHC200M chip; hPD-1 (1-1024 nM) or mPD-1-Fc (4-1024 nM) as analyte, fourfold dilution series, no regeneration; HBS-EP pH 7.4, 25 °C; medians over the spots of a construct, KD = koff/kon
test parameters: one partner purified
One number for each entry, in M⁻¹ s⁻¹.

{"binder": "toripalimab Fab L.P100D (Fab, V domains shown, as the heavy chain of Sm3; light chain of Sm3 with this change; numbers count from the chain's first residue; source: Brevibacillus, culture supernatant (ammonium sulfate precipitate); not shown: 6xHis, C-terminal, kept; 6xHN, C-terminal, kept) VH: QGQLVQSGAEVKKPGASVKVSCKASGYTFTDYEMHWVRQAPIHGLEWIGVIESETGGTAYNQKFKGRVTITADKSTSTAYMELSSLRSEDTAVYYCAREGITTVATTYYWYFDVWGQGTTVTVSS VL: DVVMTQSPLSLPVTLGQPASISCRSSQSIVHSNGNTYLEWYLQKPGQSPQLLIYKVSNRFSGVPDRFSGSGSGTDFTLKISRVEAEDVGVYYCFQGSHVDLTFGQGTKLEIK", "units": "M⁻¹ s⁻¹", "kon": 30100}
{"binder": "toripalimab Fab L.N35Y (Fab, V domains shown, as the heavy chain of Sm3; light chain of Sm3 with this change; numbers count from the chain's first residue; source: Brevibacillus, culture supernatant (ammonium sulfate precipitate); not shown: 6xHis, C-terminal, kept; 6xHN, C-terminal, kept) VH: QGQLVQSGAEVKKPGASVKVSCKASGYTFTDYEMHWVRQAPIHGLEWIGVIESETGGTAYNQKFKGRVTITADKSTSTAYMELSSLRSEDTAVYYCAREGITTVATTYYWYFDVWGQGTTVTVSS VL: DVVMTQSPLSLPVTLGQPASISCRSSQSIVHSNGYTYLEWYLQKPGQSPQLLIYKVSNRFSGVPDRFSGSGSGTDFTLKISRVEAEDVGVYYCFQGSHVPLTFGQGTKLEIK", "units": "M⁻¹ s⁻¹", "kon": 45500}

Field: next binder
Inquiry: Could you share which kon value was measured for toripalimab Fab L.T36A (Fab, V domains shown, as the heavy chain of Sm3; light chain of Sm3 with this change; numbers count from the chain's first residue; source: Brevibacillus, culture supernatant (ammonium sulfate precipitate); not shown: 6xHis, C-terminal, kept; 6xHN, C-terminal, kept) VH: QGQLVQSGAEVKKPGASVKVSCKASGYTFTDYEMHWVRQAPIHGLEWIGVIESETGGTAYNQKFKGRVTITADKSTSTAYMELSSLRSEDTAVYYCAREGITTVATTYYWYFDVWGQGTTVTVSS VL: DVVMTQSPLSLPVTLGQPASISCRSSQSIVHSNGNAYLEWYLQKPGQSPQLLIYKVSNRFSGVPDRFSGSGSGTDFTLKISRVEAEDVGVYYCFQGSHVPLTFGQGTKLEIK ?
Reply text: 46700

Just for reference, paper PMC10663500 is where these values come from.
